test: protein stability index of a GFP-peptide fusion (yeast GPS) (PSI 1-4); higher = more stable; sorted into four equal gates, so the index is relative within each strain; details: pdr5∆
ENDPOINT LABEL: protein stability index

>>> value_observed("FTKKPVTPNDKIPEREE [SIR4]")
2.95
>>> value_observed("KLIKFETRNEDDVVVLT [FAS1]")
2.93
>>> value_observed("EYEELKEKIEKLSKSAT [SMC1]")
3.09

====

test: protein stability index of a GFP-peptide fusion (yeast GPS) (PSI 1-4); higher = more stable; sorted into four equal gates, so the index is relative within each strain; settings: ubr1∆
protein stability index by entry:
ENDPOINT LABEL: protein stability index

>>> value_observed("GSGLLKLSEIILNINNS [SWI1]")
2.85
>>> value_observed("KNRSTIFWGIRLAKSTE [BRR2]")
2.95
>>> value_observed("FGHLMHYGNEHIRRMVP [RPN1]")
1.96
>>> value_observed("KLRAARAKAMKFADGFL [RPS3]")
3.16
>>> value_observed("TDYLYRRLHDENLMVQR [YCS4]")
2.38
>>> value_observed("KNKYLKDVLAQTSVTTN [SWP82]")
2.37
>>> value_observed("FFRNKLKYHDFLRKATA [RPL16B]")
2.23
>>> value_observed("RENGKGGQIAHILFQNN [ROX3]")
2.48
>>> value_observed("EEESLHVFQYANRPRLV [RPC37]")
2.21
>>> value_observed("PYFDYIFNDILAHVDQI [YJL039C/NUP192]")
1.94

====

experiment: protein stability index of a GFP-peptide fusion (yeast GPS) (PSI 1-4); higher = more stable; sorted into four equal gates, so the index is relative within each strain; conditions: ubr1∆
Response key: condition met means protein stability index >= 2; condition not met means protein stability index < 2.

>>> assigned_category("RKLINYTKKHLSSHSST [RPN4]")
"condition not met"
>>> assigned_category("TLFCCLLRSRLATRRVL [RPO21]")
"condition not met"
>>> assigned_category("YLTPPHECRLRDMTYSA [RET1]")
"condition met"
>>> assigned_category("DTLDGDLMDDMSDISDL [RPN3]")
"condition met"
>>> assigned_category("VQSKARYTVRTFGIRRN [RPL11A]")
"condition not met"
>>> assigned_category("VVPNEKADDDSVTIISA [ASC1]")
"condition met"
>>> assigned_category("ATEKKSSSPLAMSETLS [PRE8]")
"condition met"

====

experiment: protein stability index of a GFP-peptide fusion (yeast GPS) (PSI 1-4); higher = more stable; sorted into four equal gates, so the index is relative within each strain; conditions: ubr1∆
Response key: Condition met means protein stability index >= 3; Condition not met means protein stability index < 3.

>>> assigned_category("QTFGVDILAKLFSLEKP [SWI1]")
"Condition not met"
>>> assigned_category("GEHEKSNILLNSLTKYP [MED1]")
"Condition not met"
>>> assigned_category("TTTSNTSGTNIAGTFNV [YOR098C/NUP1]")
"Condition not met"
>>> assigned_category("PKKEYDDDAVRREVQIQ [NSL1]")
"Condition not met"
>>> assigned_category("ELEFIQSLANIQYVTYL [SOH1]")
"Condition not met"
>>> assigned_category("AGNIKCRNDAVNWLAYT [BRR2]")
"Condition met"
>>> assigned_category("IPRHLQLAIRNDDELNK [HTA1]")
"Condition not met"
>>> assigned_category("LLRSRLATRRVLQEYRL [RPO21]")
"Condition not met"
>>> assigned_category("KTQQNEKSENGENDDDT [RPN3]")
"Condition met"
>>> assigned_category("TISILAAPSGNYKQLTL [RRP43]")
"Condition not met"
>>> assigned_category("AMLNLINDNNTRPYILE [YCG1]")
"Condition met"
>>> assigned_category("VDTSTELESMLEDLKNT [RRP6]")
"Condition met"
>>> assigned_category("IARLYSCISISDIISML [RRI2]")
"Condition not met"
>>> assigned_category("QFVSKLVDNLNAEVVAG [BRR2]")
"Condition not met"
>>> assigned_category("SQIIPLMKKACYVGLLT [SNU114]")
"Condition not met"
>>> assigned_category("QVPSSLIVRAKNHTHNL [RRP4]")
"Condition not met"
>>> assigned_category("VVQDSQTATQLLERGRL [SMC2]")
"Condition not met"
>>> assigned_category("RKAYFTAPSSQRRVLLS [RPL26A]")
"Condition not met"
>>> assigned_category("TCVAKKGIAKEHAKWGP [RPB3]")
"Condition met"
>>> assigned_category("RKALPKEPKKLLPNSKN [DSN1]")
"Condition not met"
>>> assigned_category("PVDHPHGGGNHQHIGKA [RPL2A]")
"Condition met"
>>> assigned_category("RCKIYFFYLRISKKLQF [PCI8]")
"Condition not met"
>>> assigned_category("ISTYISTDELVGSPLTV [POP8]")
"Condition not met"
>>> assigned_category("SPAGKYKRQKSSLLYTY [ESC2]")
"Condition not met"
>>> assigned_category("FKNDFNSFYYTSLLYLS [RPN9]")
"Condition not met"
>>> assigned_category("DEDIITIFKYLTDKDAF [CDC53]")
"Condition met"
>>> assigned_category("EEQEEEPDREKIKLLTQ [RPC19]")
"Condition not met"
>>> assigned_category("DELCKLVTCEGSEEKAF [SRP54]")
"Condition not met"
>>> assigned_category("SRFSPEKLAVSALEQAI [YGL100W/SEH1]")
"Condition not met"
>>> assigned_category("GFSFGSQLGGNKTVNEA [YJL041W/NSP1]")
"Condition met"
>>> assigned_category("QFGNACISLSGVPNYLV [SSN2]")
"Condition not met"
>>> assigned_category("AKNIISNVLDGNKNQFE [LRP1]")
"Condition met"
>>> assigned_category("TNNMEKIIEDLRQKHEF [SMC2]")
"Condition met"
>>> assigned_category("SIRAEAVAASSTKTGTP [POP1]")
"Condition not met"
>>> assigned_category("IKVLLRQNRRPELGDKF [RET1]")
"Condition met"
>>> assigned_category("MGDNSQLDFTEFDEQYG [SNF2]")
"Condition met"
>>> assigned_category("SSKKSKRLDKVGKKKGG [LRP1]")
"Condition not met"
>>> assigned_category("AKAPSGLDQSRIPFSER [FAS1]")
"Condition not met"
>>> assigned_category("DAGKIDKHLYHVLYKES [RPL19A]")
"Condition not met"
>>> assigned_category("FSSLAISEINFLHESSF [CSI1]")
"Condition not met"
>>> assigned_category("SENQRQIFCVFSGKGVH [GRR1]")
"Condition not met"
>>> assigned_category("LLFEDLFKKFNNDFKLS [RET1]")
"Condition not met"
>>> assigned_category("FKVRTNLNDKFGIYILT [MED1]")
"Condition not met"
>>> assigned_category("NSLFYLKWSACTSLMDI [IRR1]")
"Condition not met"
>>> assigned_category("SKSENPVLSTIAFLVGL [SWI3]")
"Condition not met"
>>> assigned_category("FKKDFEVNISSLDAREA [RPC40]")
"Condition not met"

====

experiment: protein stability index of a GFP-peptide fusion (yeast GPS) (PSI 1-4); higher = more stable; sorted into four equal gates, so the index is relative within each strain; settings: ubr1∆
Response key: yes means protein stability index >= 2; no means protein stability index < 2.

>>> assigned_category("KKNIQKAKSNQTQREKA [IRR1]")
"yes"
>>> assigned_category("GNILDFNLNLPPSSFGR [REC8]")
"yes"
>>> assigned_category("TAVAFWSWDIAVDNCAI [HRT1]")
"no"
>>> assigned_category("KALRRKIYINLALGSHN [SSN2]")
"yes"
>>> assigned_category("ISKKIIGMSLLMRTFLY [SIR3]")
"no"
>>> assigned_category("RVNNPNVSLIKIEGVAT [RPL33A]")
"yes"
>>> assigned_category("QIIFGVVEKKTVGSSNG [RPO21]")
"no"
>>> assigned_category("VATEPLLDILVKGETRI [PRP8]")
"no"
>>> assigned_category("ASLALAHVFVGTCNGDI [RPN1]")
"yes"
>>> assigned_category("LPIESQFVSKLVDNLNA [BRR2]")
"yes"
>>> assigned_category("AHMSIGCLHKGKLISNL [YML031W/NDC1]")
"no"
>>> assigned_category("HDISRYVRAKFLDYTTD [PRP8]")
"yes"
>>> assigned_category("QLSNWQKIRNSEGISEA [ITC1]")
"yes"
>>> assigned_category("GDLKLQVLLDEEYKQLV [RPO21]")
"yes"
>>> assigned_category("KLQLGQLYESGNPVNDA [COR1]")
"yes"
>>> assigned_category("ATLQSNEPTQKDEEETE [DSN1]")
"yes"

Numbers sourced from the supplement of paper PMC9732359.
